- TARGET_UNDER_TEST: FAD-linked sulfhydryl oxidase ALR (Homo sapiens)
- EXPERIMENTAL_PROTOCOL: ALR-catalysed DTT oxidation blockers – biochemical, H2O2 detection, HRP-luminol luminescence, single point, primary screen (AID 485317)
- TEST_CONDITIONS: purified ALR, concentration not given here
The whole screen tested about 290,000 compounds, of which about 11,000 (3.8%) were called active.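 How the source made its calls: active means mean replicate inhibition above about 79%, with every replicate also reaching it (limit read from the data); inconclusive means only one of the two criteria met; inactive means mean below limit and not every replicate reaching it.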 The list comes from a sample in which actives are over-represented; it also holds close analogues and randomly drawn compounds.
Answer with one of the outcomes given here: TRUE = active, FALSE = inactive

Here's what some known entries look like.
| COMPOUND | ASSIGNED_LABEL |
| --- | --- |
| c1ccc(-c2cnc(CN3CCN(c4ccccc4)CC3)o2)cc1 | TRUE |
| COc1cc(/C=N/NC(=O)CCc2n[nH]c(=O)[nH]c2=O)ccc1O | TRUE |
| COc1cc(/C=N/NC(=O)c2ccc(N3CCCC3=O)cc2)ccc1O | FALSE |

[in] Field: outcome | Entry: `O=C(NC1CCCCC1)c1ccc(CNc2c(N3CCOCC3)c(=O)c2=O)cc1`
[out] TRUE

[in] What is the recorded call for this compound in the test? `CCOc1ccc(/C=N/NC(=O)CSc2ccccn2)cc1O`
[out] TRUE

[in] What did the test return for `O=C(CN1CCN(c2cccc(Cl)c2)CC1)Nc1ccc(S(=O)(=O)N2CCOCC2)cc1` ?
[out] FALSE

[in] # outcome recorded in this test, key = `NCCCCCC(=O)N/N=C/c1ccc2nccnc2c1`
[out] FALSE

[in] Please state the recorded outcome for this compound: CC1CC(=O)Nc2ccccc2N1C(=O)COc1ccc2cc(Br)ccc2c1 (stereo not drawn)
[out] FALSE

[in] Hi, do you know how `O=C(CN1CCN(c2ccc(O)cc2)CC1)Nc1cc(S(=O)(=O)N2CCOCC2)ccc1Cl` came out in this test?
[out] TRUE

[in] Query: recorded result category for `CC(C)c1ccc(NC(=O)COC(=O)c2ccc(CN3CCCC3=O)cc2)cc1` in this test
[out] FALSE

[in] Assay result, entry `COc1ccccc1C(=O)Nc1ccc(OCC(=O)N2CCCCC2)cc1` — outcome?
[out] FALSE

[in] Recorded test outcome, item `Cc1ccc(C(=O)NC(=S)NCc2cccnc2)cc1`
[out] FALSE

[in] Lab log entry: `Cc1nc2ccccc2n1CC(=O)N/N=C/c1cccnc1` — outcome as called in the assay?
[out] FALSE

[in] Recorded test outcome, item `CC(C)NC(=O)NC(=O)COC(=O)c1ccc(NC(=O)CC#N)cc1`
[out] TRUE

[in] Dear all, I need the recorded test outcome for `Fc1ccc(N2CCN(Cc3cnc(Oc4ccc(Br)cc4)s3)CC2)cc1` , thank you.
[out] FALSE

[in] Hi team, can someone confirm the assay call for `CC1CCN(c2c(NCc3ccc(C(=O)NCc4ccccc4)cc3)c(=O)c2=O)CC1` ?
[out] FALSE

[in] Short answer needed: outcome of this test for `Cc1ccn2c(=O)nc(SCC(=O)NCc3ccc4c(c3)OCO4)nc2c1` ?
[out] FALSE

[in] // param item: `Cc1c(C(=O)NNC(=O)c2ccncc2)oc2ccccc12` ; yields the recorded call
[out] FALSE

[in] How was `CCOc1ccc(NC(=O)c2ccc(NC(=O)COC(=O)c3ccc(NC(=O)CC#N)cc3)cc2)cc1` classified in this test?
[out] FALSE

[in] Hello, I am checking results. What call was entered for `Cc1ccc(-c2cc(C(=O)N3CCc4ccccc4C3)no2)cc1` ?
[out] FALSE

[in] Fill in: this test's call for `O=C(CN1CCOCC1)Nc1cc(Cl)ccc1Cl` is ___
[out] FALSE

[in] For `COc1ccc(N2CCN(Cc3nnc(-c4ccccc4)o3)CC2)cc1` , which call appears in the assay record?
[out] FALSE

[in] Write down the call the test reported for this compound. Item: `Cc1ccc(/C=N/NC(=O)CSc2nc3ccccc3o2)cc1`
[out] FALSE

###

- TARGET_UNDER_TEST: FAD-linked sulfhydryl oxidase ALR (Homo sapiens) (UniProt P55789)
- Sequence (P55789 whole entry, looked up): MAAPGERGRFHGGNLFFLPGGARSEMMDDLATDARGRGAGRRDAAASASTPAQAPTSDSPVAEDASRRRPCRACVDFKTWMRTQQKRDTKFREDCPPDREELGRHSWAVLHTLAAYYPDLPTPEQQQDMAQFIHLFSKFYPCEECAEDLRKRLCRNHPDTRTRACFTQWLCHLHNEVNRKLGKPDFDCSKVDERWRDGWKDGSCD
- EXPERIMENTAL_PROTOCOL: ALR-catalysed DTT oxidation blockers – biochemical, H2O2 detection, HRP-luminol luminescence, single point, primary screen (AID 485317)
- TEST_CONDITIONS: purified ALR, active compounds read high, concentration not given here
Screen size: about 290,000 compounds; about 11,000 (3.8%) were called active. The sample holds actives, similar compounds and a random draw of the others, so the mix is not that of the screen.
MEASUREMENT_NAME: inhibition (%)
Express your answer in %, writing the number without its unit.

Reference set, count: 5
| SMILES_REPRESENTATION | TARGET_UNDER_TEST | READOUT_UNITS | inhibition |
| --- | --- | --- | --- |
| Cn1c(=O)[nH]c(=O)c2c1[nH]c(=S)n2Cc1ccccc1 | FAD-linked sulfhydryl oxidase ALR (Homo sapiens) (UniProt P55789) | % | 86.9 |
| CCOC(=O)CSc1nc(C)cc2c1C(=O)OC2 | FAD-linked sulfhydryl oxidase ALR (Homo sapiens) (UniProt P55789) | % | -5.37 |
| CCOC(=O)CSc1ccccn1 | FAD-linked sulfhydryl oxidase ALR (Homo sapiens) (UniProt P55789) | % | -2.85 |
| CCCCN1C(=O)/C(=C2/Sc3ccc(Cl)cc3N2CC)SC1=S | FAD-linked sulfhydryl oxidase ALR (Homo sapiens) (UniProt P55789) | % | -23.2 |
| CCc1sc(C(=O)N2CCN(CC(=O)Nc3cccc(F)c3)CC2)cc1C | FAD-linked sulfhydryl oxidase ALR (Homo sapiens) (UniProt P55789) | % | -6.06 |

[in] // returns reported inhibition for input `Cn1c(SCC(=O)N2CCCCC2)nc2c(c1=O)SCC2`
[out] -0.76

###

- TARGET_UNDER_TEST: FAD-linked sulfhydryl oxidase ALR (Homo sapiens) (UniProt P55789)
- EXPERIMENTAL_PROTOCOL: ALR-catalysed DTT oxidation blockers – biochemical, H2O2 detection, HRP-luminol luminescence, single point, primary screen (AID 485317)
- TEST_CONDITIONS: purified ALR, active compounds read high, concentration not given here
The whole screen tested about 290,000 compounds, of which about 11,000 (3.8%) were called active. For the sample, actives were picked, then their nearest neighbours and some compounds at random.
MEASUREMENT_NAME: inhibition (%)
Please reply with the bare figure in % and do not write the unit itself.

| SMILES_REPRESENTATION | TARGET_UNDER_TEST | READOUT_UNITS | ASSAY_VALUE |
| --- | --- | --- | --- |
| COc1cc(C(=O)NCC(=O)N2CC=C(c3ccccc3)CC2)cc(OC)c1OC | FAD-linked sulfhydryl oxidase ALR (Homo sapiens) (UniProt P55789) | % | 3.4 |
| O=C(CCl)NNc1nc(-c2ccccc2)c2cc(Cl)ccc2n1 | FAD-linked sulfhydryl oxidase ALR (Homo sapiens) (UniProt P55789) | % | 58.6 |
| COc1cc(OC)nc(NC(=O)CCl)n1 | FAD-linked sulfhydryl oxidase ALR (Homo sapiens) (UniProt P55789) | % | 6.07 |
| Cc1ccc(S(=O)(=O)N2CCCCC2)cc1NC(=O)CCNC(=O)c1ccccc1 | FAD-linked sulfhydryl oxidase ALR (Homo sapiens) (UniProt P55789) | % | -5.33 |
| OCCCNc1nc(-c2ccccc2)c2cc(Cl)ccc2n1 | FAD-linked sulfhydryl oxidase ALR (Homo sapiens) (UniProt P55789) | % | -2.06 |

[in] What value of inhibition has been reported for the following compound? `COc1ccc(C(=O)N/N=C2\CCS(=O)(=O)c3ccc(F)cc32)cc1OC`
[out] -0.529

[in] Which inhibition reading was recorded for the compound `NS(=O)(=O)c1cccc(NC(=O)COC(=O)c2cc([N+](=O)[O-])ccc2N2CCCC2)c1` ?
[out] -0.799

[in] Any idea what inhibition was measured for `CCN(CC(=O)Nc1ccccc1C(F)(F)F)C(=O)C1CCN(C(=O)Nc2ccccc2)CC1` ?
[out] 8.41

[in] So what does the record say about inhibition for `COc1ccc(/C=N/NC(=O)c2cc(-c3cccc(C)c3)nc3ccccc23)cc1O` ?
[out] 12.4

[in] Name the reported inhibition value associated with the compound `Cc1ccc(C)c(C(=O)COC(=O)Cn2[nH]c(=O)c3ccccc3c2=O)c1`
[out] -2.55

###

# key: entry, value: inhibition
- TARGET_UNDER_TEST: FAD-linked sulfhydryl oxidase ALR (Homo sapiens) (UniProt P55789)
- EXPERIMENTAL_PROTOCOL: ALR-catalysed DTT oxidation blockers – biochemical, H2O2 detection, HRP-luminol luminescence, single point, primary screen (AID 485317)
- TEST_CONDITIONS: purified ALR, active compounds read high, concentration not given here
About 11,000 (3.8%) of roughly 290,000 compounds were called active. Only a selection was taken, and actives are over-represented in it overall.
Please reply with the bare figure in % and do not write the unit itself.

A selection of reference data follows.
| COMPOUND | inhibition [%] |
| --- | --- |
| CC(C)NC(=O)N1CCN(c2ccncc2S(=O)(=O)N2CCCCC2)CC1 | -2.12 |
| CCCCn1c(N)c(N(CC(C)C)C(=O)CN(C)S(=O)(=O)c2ccc(F)cc2)c(=O)[nH]c1=O | -15.2 |
| CNS(=O)(=O)c1cnccc1N1CCN(c2cccc(C)c2)CC1 | 98.6 |
| O=C(COC(=O)CSc1ccccc1)Nc1ccc(F)cc1F | 0.233 |
| Cc1ccccc1Nc1nc(-c2cccnc2)cs1 | 11.2 |
| COc1ccc(-c2c(C#Cc3ccsc3)c3cc(-c4ccc(CN5CCOCC5)cc4)ccc3n2C)cc1 | -4.78 |
| CCOc1ccc(S(=O)(=O)Nc2cccc(C(=O)NCC3(N4CCCCC4)CCCCC3)c2)cc1 | -4.42 |
| CCCCn1c(-c2cccc(C)c2)nc2cc3[nH]c(=O)c(C(C)C)nc3cc21 | -32.5 |
| CCCCCC(=O)N1CCN(S(=O)(=O)c2ccc3c(c2)OCCCO3)CC1 | 1.7 |

[in] Report inhibition for Cc1cccc(NC(=O)c2ccc(S(=O)(=O)N(C)CC3CCCO3)cc2)c1C (stereo not given) please.
[out] -10.6
